Molecular target: T1, human CLDN6 (UniProt P56747 1-220)
T1 chain: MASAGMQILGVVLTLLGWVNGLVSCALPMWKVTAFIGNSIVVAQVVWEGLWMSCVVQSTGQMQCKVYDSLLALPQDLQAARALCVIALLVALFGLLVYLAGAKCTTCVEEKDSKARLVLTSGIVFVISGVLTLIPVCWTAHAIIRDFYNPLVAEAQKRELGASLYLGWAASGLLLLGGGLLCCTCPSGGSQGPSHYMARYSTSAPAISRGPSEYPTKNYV
Assay: HEK293E cell binding; avid
assay.readout: EC50 (µg/mL)
The response must be a number in µg/mL with no trailing unit.

XENP35979 H2_L1.187 (antibody, V domains shown) VH: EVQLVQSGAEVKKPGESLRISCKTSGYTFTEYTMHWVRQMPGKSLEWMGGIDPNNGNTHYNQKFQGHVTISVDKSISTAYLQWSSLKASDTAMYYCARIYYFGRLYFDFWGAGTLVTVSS VL: DIQMTQSPSSLSASVGDRVTITCQASEDIVNRLAWYQQKPGKVPKLLISGATSLETGVPSRFSGSGSGKDYTFTISSLQPEDIATYYCQQYWSSPLTFGGGTKVEIKR; 0.323
XENP36040 H2.90_L1 (antibody, V domains shown) VH: EVQLVQSGAEVKKPGESLRISCKTSGYTFTEYTMHWVRQMPGKSLEWMGGIDPNNLNTHYNQKFQGHVTISVDKSISTAYLQWSSLKASDTAMYYCARIYYFGRLYFDFWGAGTLVTVSS VL: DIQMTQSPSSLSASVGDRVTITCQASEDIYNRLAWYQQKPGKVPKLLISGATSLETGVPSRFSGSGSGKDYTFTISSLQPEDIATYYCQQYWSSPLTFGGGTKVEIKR; 0.706
XENP35891 H2.12_L1 (antibody, V domains shown) VH: EVQLVQSGAEVKKPGESLRISCKTSGYDFTEYTMHWVRQMPGKSLEWMGGIDPNNGNTHYNQKFQGHVTISVDKSISTAYLQWSSLKASDTAMYYCARIYYFGRLYFDFWGAGTLVTVSS VL: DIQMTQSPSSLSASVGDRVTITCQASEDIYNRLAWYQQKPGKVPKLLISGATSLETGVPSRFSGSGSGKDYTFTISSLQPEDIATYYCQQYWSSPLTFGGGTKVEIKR; 0.474

q: Tell me measured EC50 for XENP35883 H1.19_L1 (antibody, V domains shown) VH: QVQLVQSGAEVKKPGASVKVSCKTSGYTFTEYTMHWVRQAPGQSLEWMGGIDPNNGNTHYNQKFQGRVTITVDKSASTAYMELSSLRSEDTATYYCARIYYFGRLYFDFWGAGTLVTVSS VL: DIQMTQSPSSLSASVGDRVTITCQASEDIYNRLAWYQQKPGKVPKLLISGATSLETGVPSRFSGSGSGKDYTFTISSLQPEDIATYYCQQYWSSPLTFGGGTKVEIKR please.
a: 0.617

All values here come from patent US20240400675A1.
